For each entry below, report its shrunken log2 fold change value.
tested on: Escherichia coli TOP10; test: shrunken log2 fold change of peptide-encoding DNA abundance (4.5 h post-induction vs induction); higher = less antimicrobial activity (less host growth inhibition); settings: time post-induction: 4.5 h; library: site-saturation at positions 5, 18, 19, 20
Lab note: record just the number, no unit beside it.

Lab note: measured shrunken log2 fold change of RRIRRRPPRLPRPRPRPLNNPRP was -0.338

// shrunken log2 fold change value for RRIRNRPPRLPRPRPRPFAYPRP : 0.0803

Entry RRIRMRPPRLPRPRPRPVSCPRP ; shrunken log2 fold change = 0.141

Short answer for RRIRKRPPRLPRPRPRPAYYPRP : shrunken log2 fold change was -0.0726

Lab book: shrunken log2 fold change of RRIRMRPPRLPRPRPRPHNNPRP noted as -0.153

Value of measured shrunken log2 fold change for the entry RRIRNRPPRLPRPRPRPLSEPRP : 0.0166

Just so you know, measured shrunken log2 fold change for RRIRLRPPRLPRPRPRPIDRPRP came out at -0.241

Note to self: shrunken log2 fold change recorded for RRIRKRPPRLPRPRPRPWIKPRP was -0.00314

The value of shrunken log2 fold change measured for the sequence RRIRVRPPRLPRPRPRPIDMPRP turned out to be -0.0698

Looking up RRIRWRPPRLPRPRPRPWTNPRP , I found its shrunken log2 fold change recorded as 0.0442

###

test system: Escherichia coli TOP10; assay: shrunken log2 fold change of peptide-encoding DNA abundance (4.5 h post-induction vs induction); higher = less antimicrobial activity (less host growth inhibition); details: time post-induction: 4.5 h; library: site-saturation at positions 5, 18, 19, 20
Classify by measured shrunken log2 fold change: yes if it is equal to or exceeds -0.02, no if it is smaller.

# input # bool: shrunken log2 fold change of RRIRKRPPRLPRPRPRPLSNPRP >= -0.02
# output yes

# input Exam item: decide whether the reported shrunken log2 fold change for RRIRTRPPRLPRPRPRPNPKPRP is at least -0.02.
# output yes

# input Has RRIRVRPPRLPRPRPRPDWWPRP a recorded shrunken log2 fold change greater than or equal to -0.02?
# output yes

# input Determine whether measured shrunken log2 fold change meets or exceeds -0.02 for RRIRARPPRLPRPRPRPESPPRP
# output yes

# input Can RRIRQRPPRLPRPRPRPVMLPRP be said to have shrunken log2 fold change at or above -0.02?
# output no

# input Decide: is the reported value of shrunken log2 fold change for RRIRYRPPRLPRPRPRPNMYPRP equal to or greater than -0.02?
# output no

# input Is the recorded value of shrunken log2 fold change equal to or greater than -0.02 for this sequence? RRIRLRPPRLPRPRPRPQFDPRP
# output no

###

tested on: Escherichia coli TOP10; assay: shrunken log2 fold change of peptide-encoding DNA abundance (4.5 h post-induction vs induction); higher = less antimicrobial activity (less host growth inhibition); conditions: time post-induction: 4.5 h; library: site-saturation at positions 5, 18, 19, 20;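 also: peptides expressed intracellularly from a pBAD plasmid library in pooled LB shake-flask culture, induced with 0.3% L-arabinose, DNA abundance read by NGS, three biological replicates, DESeq2 with apeglm shrinkage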
What shrunken log2 fold change was measured for each of the following?
Provide a numeric answer; units are not to be included.

For record RRIRWRPPRLPRPRPRPYMVPRP the listed shrunken log2 fold change is -0.844

# shrunken log2 fold change of RRIRQRPPRLPRPRPRPMGYPRP = -0.655

Short answer for RRIRCRPPRLPRPRPRPQFQPRP : shrunken log2 fold change was -0.606

Record RRIRVRPPRLPRPRPRPREVPRP . Reported shrunken log2 fold change: 0.089

Value of measured shrunken log2 fold change for the entry RRIRHRPPRLPRPRPRPLMQPRP : -0.248

// shrunken log2 fold change value for RRIRRRPPRLPRPRPRPYKNPRP : -0.47

So for RRIRKRPPRLPRPRPRPFHLPRP , the logged shrunken log2 fold change turned out to be 0.0215

GET /value?item= RRIRDRPPRLPRPRPRPHTQPRP &field=shrunken log2 fold change returns -0.455

Sample RRIRFRPPRLPRPRPRPNQGPRP ; shrunken log2 fold change observed: -0.197

Form: sequence = RRIRMRPPRLPRPRPRPTMIPRP ; shrunken log2 fold change = -0.185

// field: shrunken log2 fold change; key: RRIRQRPPRLPRPRPRPTDKPRP ; value = -0.112

The sequence RRIRIRPPRLPRPRPRPSHQPRP showed shrunken log2 fold change equal to 0.0866

The sequence RRIRARPPRLPRPRPRPHNFPRP showed shrunken log2 fold change equal to -0.108

For RRIRLRPPRLPRPRPRPFMVPRP the sequence record lists shrunken log2 fold change as -0.606

# shrunken log2 fold change of RRIRTRPPRLPRPRPRPINEPRP = -0.405

For reference, reported shrunken log2 fold change for RRIRNRPPRLPRPRPRPRDQPRP stands at -0.0345

Documented shrunken log2 fold change of RRIRWRPPRLPRPRPRPIKVPRP : -0.146

response.value for RRIRKRPPRLPRPRPRPRSYPRP (field: shrunken log2 fold change) = -0.134

// RRIRERPPRLPRPRPRPFQSPRP : shrunken log2 fold change value = -0.00776

shrunken log2 fold change reading for RRIRTRPPRLPRPRPRPCVNPRP : -0.0913

// field: shrunken log2 fold change; key: RRIRRRPPRLPRPRPRPRQGPRP ; value = 0.298

Record RRIRVRPPRLPRPRPRPKIKPRP , field shrunken log2 fold change: -0.303

Per the records, this sequence ( RRIRHRPPRLPRPRPRPIYYPRP ) has shrunken log2 fold change equal to -0.32

Per the records, this sequence ( RRIRQRPPRLPRPRPRPFTQPRP ) has shrunken log2 fold change equal to -0.0608

For this sequence ( RRIRTRPPRLPRPRPRPCLSPRP ), measured shrunken log2 fold change is 0.079

Just so you know, measured shrunken log2 fold change for RRIRERPPRLPRPRPRPFQQPRP came out at -0.0184

For record RRIRWRPPRLPRPRPRPEINPRP the listed shrunken log2 fold change is 0.267

Summary for this sequence, RRIRPRPPRLPRPRPRPKEEPRP : shrunken log2 fold change is 0.0604

Item: RRIRWRPPRLPRPRPRPKDGPRP | shrunken log2 fold change: 0.00598

// field: shrunken log2 fold change; key: RRIRKRPPRLPRPRPRPTCHPRP ; value = 0.169

For RRIRVRPPRLPRPRPRPPNNPRP the sequence record lists shrunken log2 fold change as -0.233

# sequence RRIRCRPPRLPRPRPRPMWQPRP ; its shrunken log2 fold change = 0.183

# sequence RRIRFRPPRLPRPRPRPELWPRP ; its shrunken log2 fold change = 0.677

What the record says about RRIRGRPPRLPRPRPRPVMTPRP : shrunken log2 fold change is 1.8

Lab note: RRIRFRPPRLPRPRPRPGYDPRP gave shrunken log2 fold change of -0.292

Quick note, shrunken log2 fold change for RRIRHRPPRLPRPRPRPCVSPRP landed at -0.311

The sequence RRIRSRPPRLPRPRPRPEEEPRP showed shrunken log2 fold change equal to 1.47

get_value(item= RRIRPRPPRLPRPRPRPYSQPRP , readout=shrunken log2 fold change) returns -1.06

shrunken log2 fold change for RRIRNRPPRLPRPRPRPFPAPRP is -0.0844

The sequence RRIRCRPPRLPRPRPRPEGPPRP showed shrunken log2 fold change equal to 0.261

Measured shrunken log2 fold change, RRIRIRPPRLPRPRPRPWWWPRP : -0.115

# shrunken log2 fold change of RRIRTRPPRLPRPRPRPRIEPRP = 0.453

Lab note: RRIRQRPPRLPRPRPRPSASPRP gave shrunken log2 fold change of 0.0788

GET /value?item= RRIRCRPPRLPRPRPRPIHYPRP &field=shrunken log2 fold change returns -0.95

shrunken log2 fold change reading for RRIRVRPPRLPRPRPRPINGPRP : -0.17

Record RRIRIRPPRLPRPRPRPIPGPRP . Reported shrunken log2 fold change: -0.191

RRIRQRPPRLPRPRPRPQVKPRP has a reported shrunken log2 fold change of -0.101
